// data source = the RNAGym collection of RNA variant scans (doi:10.7554/elife.80360)

Give measured self-cleavage for each item. Keep answers brief.
B1: HDV Ribozyme (parent)
chain: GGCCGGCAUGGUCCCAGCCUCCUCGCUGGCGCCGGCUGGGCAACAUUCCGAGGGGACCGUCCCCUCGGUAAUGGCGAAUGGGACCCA

# Variants of: B1
# ASSAY_EXPLANATION: self-cleavage, relative activity (ratio to wild type); higher = more cleavage; co-transcriptional
Give bare numbers.

RESIDUE_CHANGE: G11A G81U
self-cleavage: 0.137
--
RESIDUE_CHANGE: C4G C64G
self-cleavage: 0.259
--
RESIDUE_CHANGE: C33A G38C
self-cleavage: 0.151
--
RESIDUE_CHANGE: G31C A43C
self-cleavage: 0
--
RESIDUE_CHANGE: A16G A87G
self-cleavage: 0.892

# batch: return self-cleavage for each of the 5 variants below
1. C66G A87G
2. C22G A56G
3. G28C C44U
4. G53U C63A
5. A45U U72C

1: 1.06; 2: 0.0875; 3: 0; 4: 1.2; 5: 1.02
